Property: emission maximum; scope: individual compounds
experiment: solvent given as SMILES; conditions: in CC#N
Value expressed in nm; do not type the unit.

Q: For the compound shown here, `O=S1(=O)C2=C(c3ccc(-c4ccc(N(c5ccccc5)c5ccccc5)cc4)cc31)C1(C3=C(c4ccccc41)S(=O)(=O)c1cc(-c4ccc(N(c5ccccc5)c5ccccc5)cc4)ccc13)c1ccccc12` , give the reported emission maximum.
A: 665

Q: For the compound shown here, `Cc1ccc(C2=C3C=C(I)C(I)=[N+]3[B-](F)(F)n3c2cc(I)c3I)cc1` , give the reported emission maximum.
A: 591

====

Property: emission maximum; scope: individual molecules
assay: solvent given as SMILES; conditions: in Cc1ccccc1

As a guide, the following entries are already answered.
CC1(C)c2ccccc2N(c2ccc(-c3nc4cccc5c4n3-c3ccccc3C5(C)C)cc2)c2ccccc21 :: 450 nm
c1ccc2c(c1)c1ccccc1n2-c1ccc2c(c1)c1ccccc1n2-c1ccc(-n2c3ccccc3c3cc(-n4c5ccccc5c5ccccc54)ccc32)cc1 :: 372 nm
C(#Cc1ccc(N(c2ccc(C#Cc3ccc(-c4cc(-c5ccccc5)nc(-c5ccccc5)c4)cc3)cc2)c2ccc(C#Cc3ccc(-c4cc(-c5ccccc5)nc(-c5ccccc5)c4)cc3)cc2)cc1)c1ccc(-c2cc(-c3ccccc3)nc(-c3ccccc3)c2)cc1 :: 426 nm
COc1ccc(C2=C(c3ccc([N+](=O)[O-])cc3)C(c3ccccc3)=[N+]3C2=Nc2c(-c4ccc(OC)cc4)c(-c4ccc([N+](=O)[O-])cc4)c(-c4ccccc4)n2[B-]3(F)F)cc1 :: 688 nm
C#CC1CN2CCC1CC2[C@@H](O)c1ccnc2ccc(OC)cc12 (some centres not stated) :: 360 nm

Q: For the molecule shown here, `COc1ccc2c3c(cccc13)C(=O)c1ccccc1-2` , give the reported emission maximum.
A: 500 nm

Q: For the molecule shown here, `CC(C)(C)c1ccc(-c2nc3c4ccc(-c5ccc6ccc7cccc8ccc5c6c78)cc4c4cc(-c5ccc6ccc7cccc8ccc5c6c78)ccc4c3n2-c2ccc(C(C)(C)C)cc2)cc1` , give the reported emission maximum.
A: 433 nm

====

assay: solvent given as SMILES; settings: in CC(C)CO
metric: emission maximum (nm)
Value expressed in nm; do not type the unit.

Oc1ccccc1/N=C/c1ccccc1Oc1ccccc1 :: 409
Nc1ccc2c(c1)C(=O)O/C2=C\c1ccc(Cl)cc1 :: 483.09
COCCOCCOc1ccc(OCCOCCOC)c(C=O)c1 :: 453

Alright, here's another molecule for you.
Q: For the molecule shown here, `COCCOCCOc1cc(C=O)c(OCCOCCOC)cc1C=O` , give the reported emission maximum.
A: 481

====

experiment: solvent given as SMILES; conditions: in Cc1ccccc1
Lab note: compare emission maximum with 500 nm, writing t if less and f if equal or more.

Here's what some known entries look like.
CC1(C)c2ccccc2N(c2ccccc2)c2ccc(-c3nc(-c4ccccc4)nc(-c4ccccc4)n3)cc21 :: t
O=c1c2ccccc2oc2cc(N3c4ccccc4C4(c5ccccc5Oc5ccccc54)c4ccccc43)ccc12 :: t
COc1ccc(-c2nc3ccccc3nc2-c2ccc(OC)cc2)cc1 :: t
N#C/C=C/c1ccc2ccc3cccc4ccc1c2c34 :: t
N#Cc1ccc(C#Cc2ccc3ccc4ccc(C#Cc5ccc(C#N)cc5)c5ccc2c3c45)cc1 :: t
O=C1C(=c2c(=O)c3c4ccccc4cc4cc5ccccc5c2c43)C(=O)c2ccccc21 :: f
O=P1(c2ccccc2)c2ccc(N3c4ccccc4Oc4ccccc43)cc2-c2cc(N3c4ccccc4Oc4ccccc43)ccc21 :: f
O=P1(c2ccccc2)C2=C(c3ccccc31)C(c1ccccc1)(c1ccccc1)c1cc(N(c3ccccc3)c3ccccc3)ccc12 (configuration not stated) :: f

Q: Report whether reported emission maximum is lower than 500 nm (strictly) for `CCCCCCCCOC(=O)c1cc2ccc3ccccc3c2c(C#N)c1N`
A: t

Q: Report whether reported emission maximum is lower than 500 nm (strictly) for `N#Cc1c(-n2c3ccccc3c3ccccc32)cc(N2c3ccccc3C(c3ccccc3)(c3ccccc3)c3ccccc32)cc1-n1c2ccccc2c2ccccc21`
A: t

Q: Report whether reported emission maximum is lower than 500 nm (strictly) for `CCCC1=Cc2nc1ccc1[nH]c(cc1CCC)c1nc(c(N)cc3[nH]c2cc3CCC)C(CCC)=C1`
A: f

====

experiment: solvent given as SMILES; conditions: in ClCCl
metric: emission maximum (nm)
Value expressed in nm; do not type the unit.

As a guide, the following entries are already answered.
c1ccc2c(c1)c1ccccc1n2-c1ccc(-c2ccc(-c3ccc(-n4c5ccccc5c5ccccc54)nc3-n3c4ccccc4c4ccccc43)nn2)c(-n2c3ccccc3c3ccccc32)n1 :: 419.62
Cc1nc(-c2cc(N)ccc2O)n2c1CCCC2 :: 543
CCCCCCOc1cc(C=C2C(=O)c3ccccc3C2=O)c(OCCCCCC)cc1C=C1C(=O)c2ccccc2C1=O :: 622
COc1ccc(/C=C/c2cc(/C=C/c3ccc(OC)cc3)nc(/C=C/c3ccc(C(F)(F)F)cc3)n2)cc1 :: 441
O=S1(=O)c2ccccc2C2(c3cc(-c4ccc(N(c5ccccc5)c5ccccc5)cc4)ccc3-c3ccc(-c4ccc(N(c5ccccc5)c5ccccc5)cc4)cc32)c2ccccc21 :: 460
COc1ccc2c(CC(=O)NN)coc2c1 :: 402
CN(C)c1ccc(/C=C2\CC/C(=C\c3ccc(N(C)C)cc3)C2=O)cc1 :: 547

Alright, here's another molecule for you.
Q: For the molecule shown here, `c1ccc(N(c2ccccc2)c2ccc3c(ccc4nc5ccc6cc(N(c7ccccc7)c7ccccc7)ccc6c5nc43)c2)cc1` , give the reported emission maximum.
A: 576

====

assay: solvent given as SMILES; details: in CC#N
metric: emission maximum

As a guide, the following entries are already answered.
COC(=O)C(NC(=O)OC(C)(C)C)c1ccc2oc(-c3ccc(C#N)cc3)nc2c1 (stereo not given) :: 384 nm
CC1=N/C(=C\c2cc(N(C)C)ccc2C#N)C(=O)N1C :: 606 nm
CSC1=C2C=C(c3cc4n(c3)[B-](F)(F)[N+]3=CC=CC3=C4c3c(C)cc(C)cc3C)C(C)=[N+]2[B-](F)(F)n2c(C)ccc21 :: 740 nm
Nc1cc(N)cc(-c2nc3ccccc3s2)c1 :: 482 nm

Alright, here's another compound for you.
Q: For the compound shown here, COC(=O)C(Cc1ccc2oc(-c3ccc(N(c4ccccc4)c4ccccc4)cc3)nc2c1)NC(=O)OC(C)(C)C (stereo not given) , give the reported emission maximum.
A: 465.75 nm

====

assay: solvent given as SMILES; settings: in CCCCOCCCC
Lab note: compare emission maximum with 400 nm, writing label 1 if less and label 0 if equal or more.

Here's what some known entries look like.
COc1ccc2c3c(cccc13)C(=O)c1ccccc1-2 :: label 0
c1ccc(N(c2ccccc2)c2ccc(-c3cccc4nc5ccccc5cc34)cc2)cc1 :: label 0
Cn1cccc1-c1ccc(C#N)cc1 :: label 1
Clc1nc(Cl)nc(Nc2cc3ccc4cccc5ccc(c2)c3c45)n1 :: label 1
CN(C)c1ccc(-c2ccc3n2[B-](F)(F)[N+]2=C(c4ccccc4)C=CC2=C3C(F)(F)F)cc1 :: label 0

Q: Report whether reported emission maximum is lower than 400 nm (strictly) for `CC(C)(C)c1ccc(-c2nc3c4ccc(-c5ccc6ccc7cccc8ccc5c6c78)cc4c4cc(-c5ccc6ccc7cccc8ccc5c6c78)ccc4c3n2-c2ccc(C(C)(C)C)cc2)cc1`
A: label 0

Q: Report whether reported emission maximum is lower than 400 nm (strictly) for `CCCCCCCCC1(CCCCCCCC)c2cc(-c3ccc(C(F)(F)F)cc3)ccc2-c2ccc(N(c3ccc(-n4c5ccccc5c5ccccc54)cc3)c3ccc4c(c3)C(CCCCCCCC)(CCCCCCCC)c3cc(-c5ccc(C(F)(F)F)cc5)ccc3-4)cc21`
A: label 0

Q: Report whether reported emission maximum is lower than 400 nm (strictly) for `CC(=O)Nc1ccc2c3cccc4cccc(c5cccc1c52)c43`
A: label 0

====

Property: emission maximum; scope: individual compounds
test: solvent given as SMILES; settings: in Cc1ccccc1

As a guide, the following entries are already answered.
COc1cc(OC)cc(C2=[O+][B-](F)(F)OC(c3ccc4cc(OC)ccc4c3)=C2)c1 :: 475.78 nm
N#Cc1cccc(C#N)c1-n1c2ccccc2c2cc(-c3ccc4c(c3)c3ccccc3n4-c3c(C#N)cccc3C#N)ccc21 :: 488 nm
c1ccc2c(c1)Cc1ccccc1N2c1c2ccccc2c(N2c3ccccc3Cc3ccccc32)c2ccccc12 :: 553 nm
F[B-]1(F)n2cccc2C(c2c3ccccc3cc3ccccc23)=C2C=CC=[N+]21 :: 525 nm

Q: For the compound shown here, `Cc1cc(-n2c3ccccc3c3ccccc32)ccc1-c1ccc(S(=O)(=O)c2ccccc2)cc1C` , give the reported emission maximum.
A: 349 nm

Q: For the compound shown here, `c1ccc(-c2cc(-c3ccc4ccc5c(-c6ccnc(-c7ccccn7)c6)ccc6ccc3c4c65)ccn2)nc1` , give the reported emission maximum.
A: 410.17 nm

Q: For the compound shown here, `C(#Cc1ccc2ncsc2c1)c1ccc(N(c2ccccc2)c2ccccc2)cc1` , give the reported emission maximum.
A: 428 nm

Q: For the compound shown here, `CCCCc1ccc2c(c1)c1cc(CCCC)ccc1n2-c1ccc(S(=O)(=O)c2ccc(S(=O)(=O)c3ccc(-n4c5ccc(CCCC)cc5c5cc(CCCC)ccc54)cc3)cc2)cc1` , give the reported emission maximum.
A: 450 nm
